Assay: ACEA_ER_AUC_viability: ACEA Biosciences xCELLigence Real-Time Cell Analysis on Estrogen Receptor Agonism for Viability (AID 2283782);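 further: continuous compound exposure with impedance area under curve over 80 h; hit means loss of impedance signal meaning reduced cell growth or viability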
Results filed as inconclusive are left out. Active and inactive are the calls of the source. How the source made its calls: active means hit-call score of the fitted dose curve at least 0.9, where 1 is the maximum; inconclusive means response in the unintended direction; inactive means score below 0.9.
metric.name: AC50

In the examples that follow, each entry is paired with its recorded AC50.
> print(dat)
             compound  metric.name        data.value
1  C/C=C/C=C/CCCCCCCO         AC50  79.4 µM (active)
2       CC=C(C)C(C)=O         AC50          inactive
3     Cc1c(Cl)cccc1Cl         AC50          inactive
4   CCCCOCCOCCOC(C)=O         AC50          inactive
5  CC(C)CCCCCOC(=O)CS         AC50          inactive

I'd like to know its AC50. The compound in question is C=CC(=O)O[C@H]1C[C@@H]2CC[C@@]1(C)C2(C)C inactive

I'd like to know its AC50. The compound in question is Nc1cccc(N)n1 inactive

I'd like to know its AC50. The compound in question is COC(=O)c1ccc(C(=O)OC)c(C(=O)OC)c1 69.6 µM (active)

I'd like to know its AC50. The compound in question is CC(C)(C)N inactive
